The reported measurements were obtained from patent US20190071490A1.

Would you kindly list pKd for each of these binders?
- Tested On: T1, rat α-CGRP (1-37) (rat, C-terminal amide; N-terminal biotin when captured on the SA chip)
- T1 construct: also called rat α (1-37); α-rat
- T1 peptide: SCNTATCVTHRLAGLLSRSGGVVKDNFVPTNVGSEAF
- Assay Name: Biacore, 37°C, Fab over CGRP on SA chip
When answering, recall that pKd equals minus log10 of the concentration in mol/L, and write that number alone.

Find the recorded pKd belonging to G1 variant M25 Fab (Fab, V domains shown, Fab; constant domains as m1) VH: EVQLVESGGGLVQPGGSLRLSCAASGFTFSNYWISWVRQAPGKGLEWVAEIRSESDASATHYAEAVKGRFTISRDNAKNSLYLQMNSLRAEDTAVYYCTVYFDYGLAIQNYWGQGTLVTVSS VL: EIVLTQSPATLSLSPGERATLSCKASKNVTTYVSWYQQKPGQAPRLLIYGASNRYLGIPARFSGSGSGTDFTLTISSLEPEDFAVYYCSQSYNYPYTFGQGTKLEIK and report it.
7.12

I'd like to know its pKd. The binder in question is G1 variant M68 Fab (Fab, V domains shown, Fab; constant domains as m1; printed L561 read as L56I) VH: EVQLVESGGGLVQPGGSLRLSCAASGFTFSNYWISWVRQAPGKGLEWVAEIRSKSDNDATHYADAVKGRFTISRDNAKNSLYLQMNSLRAEDTAVYYCTVYFDYGLAIQNYWGQGTLVTVSS VL: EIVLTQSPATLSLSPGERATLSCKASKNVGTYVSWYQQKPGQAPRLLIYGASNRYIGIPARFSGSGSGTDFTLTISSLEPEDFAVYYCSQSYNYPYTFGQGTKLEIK
6.43
